Test system: T-47D breast
Assay: NCI-60 one-dose screen, 48 h
Details: 10 µM unless noted
This is part of a sample that, as a whole, favours compounds with a hit. Of some 83,000 tested, about 20% had one in any assay. Active and inactive are the calls of the source. How the source made its calls: active means growth percent below 10; inactive means the rest.
# valid calls are active, inactive; nothing else

Some entries whose results are on file:
> print(dat)
                                 mol.smiles  assayed.target  qualitative.label
1  C=CC(=O)N1CCC[C@@H](n2nc(-c3ccc(Oc4ccccc4)cc3)c3c(N)ncnc32)C1    T-47D breast             active
2  CCCS(=O)(=O)Nc1ccc(F)c(C(=O)c2c[nH]c3ncc(-c4ccc(Cl)cc4)cc23)c1F    T-47D breast             active
3  Cc1c(CN2CCN(C(=O)[C@H](C)O)CC2)sc2c(N3CCOCC3)nc(-c3cnc(N)nc3)nc12    T-47D breast             active

Here is the next item to consider.
**Query** What was the test verdict on Cc1cc(C(=O)Nc2cc(Oc3ccc4nc(NC(=O)C5CC5)cn4n3)ccc2C)n(C)n1 ?
**Result** inactive

---

System: M14 melanoma
Experiment: NCI-60 one-dose screen, 48 h (100 = growth as untreated, 0 = no growth, -100 = all killed)
Details: 10 µM unless noted
Procedure: Growth inhibition of the M14 human tumor cell line is measured as a screen for anti-cancer activity. Cells are grown in 96 well plates and exposed to the test compound for 48 hours. Compounds are tested at a single concentration, which is 10^-5 M for most compounds. The reported endpoint is percent growth (GI% or GIPRCNT), where numbers from 0 - 100% represent growth inhibition, and numbers from -100% - 0 represent cell death. For example, a value of 40 represents 60% growth inhibition. […]
This is part of a sample that, as a whole, favours compounds with a hit. Of some 83,000 tested, about 20% had one in any assay.
growth vs 20%: at or above is criterion met, below is criterion not met.

> print(dat)
                                   molecule  qualitative.label
1  Cc1cc(Nc2ncc(Cl)c(Nc3ccccc3S(=O)(=O)C(C)C)n2)c(OC(C)C)cc1C1CCNCC1  criterion not met
2  CCN(CC)C(=O)C[N+](C)(C)CCOC(c1ccccc1)c1ccccc1      criterion met

Lab note: next molecule to report on.
**Query** For this molecule, is measured growth 20% or higher? Cn1cnc(-c2cc3nccc(Oc4ccc(NC(=S)NC(=O)Cc5ccccc5)cc4F)c3s2)c1
**Result** criterion met

---

Please go through the items and note down their growth.
Tested on: HOP-92 NSCLC
Assay: NCI-60 one-dose screen, 48 h (100 = growth as untreated, 0 = no growth, -100 = all killed)
Settings: 10 µM unless noted
This is part of a sample that, as a whole, favours compounds with a hit. Of some 83,000 tested, about 20% had one in any assay.
Answers are plain numbers, in %.

Guide cases for growth, answers given:
> print(dat)
                                    compound  assayed.target  result.type  quantity.unit  data.value
 1  c1cc[n+](Cc2c3ccccc3cc3c2ccc2ccccc23)cc1    HOP-92 NSCLC       growth              %          25
 2  CN1CCN(CCCOc2cccc3nc(Nc4ccc(Cl)c(C(F)(F)F)c4)ccc23)CC1    HOP-92 NSCLC       growth              %        10.2
 3      CCN(CCN(C)C)C(=O)CNCc1cc(C(N)=O)ccn1    HOP-92 NSCLC       growth              %        87.2
 4  O=c1[nH]c([C@@H]2CCCN2)nc2c1oc1ccc(Cl)cc12    HOP-92 NSCLC       growth              %        39.8
 5  COc1cccc2cc(-c3nc(C4CCC(C(=O)O)CC4)n4ncnc(N)c34)[nH]c12 (stereo unspecified)    HOP-92 NSCLC       growth              %       -14.5
 6  CCCCn1c(C)nc2cc(Nc3nc(N4CCCCC4)nc4nc[nH]c34)ccc21    HOP-92 NSCLC       growth              %       -9.51
 7         CCOc1ccc(N=C(C)Nc2ccc(OCC)cc2)cc1    HOP-92 NSCLC       growth              %        81.9
 8  CCCCCCCC(=O)SCC/C=C/[C@@H]1CC(=O)NCc2cc(ccn2)C2=N[C@@](C)(CS2)C(=O)N[C@@H](C(C)C)C(=O)O1    HOP-92 NSCLC       growth              %       -6.63
 9  COc1ccc2c(CCCC(c3ccccc3)c3ccccc3)c3[n+](cc2c1OC)CCc1cc2c(cc1-3)OCO2    HOP-92 NSCLC       growth              %       -40.6
10  O=C(Nc1ccc(N=Nc2ccccc2)cc1)c1cccc2ccccc12    HOP-92 NSCLC       growth              %        82.5

Batch: growth for all items listed.
1. Cc1nc2cc(-c3nn(C(C)C)c4ncnc(N)c34)ccc2o1
2. Clc1ccc2c(NCCNc3nc(N4CCCC4)nc4ccccc34)ccnc2c1
3. Cc1nn(-c2nc3ccccc3[nH]2)c2c1C(c1ccc(O)cc1)CC(=O)N2 (stereo unspecified)
4. O=C(Cn1ccnc1)Nc1ccc(-c2nc3ccccc3s2)cc1
5. Cc1ccc(-[n+]2c3cc(N)c(C)cc3nc3cc(C)c(Nc4ccccc4)cc32)cc1
6. COc1cc(-c2nc(C(=O)NCC(=O)O)nn2-c2ccc(Cl)cc2)cc(OC)c1OC

**Result**
1: -40.4; 2: -1.92; 3: 99.3; 4: 75.8; 5: -60.5; 6: 106

Okay, here is my list. What is growth for each of these?
1. Cc1cc(N2CCOCC2)nc(N(CCNc2ccnc3cc(Cl)ccc23)Cc2cccs2)n1
2. COc1cc(Nc2c(C#N)cnc3cc(OCCCN4CCN(C)CC4)c(OC)cc23)c(Cl)cc1Cl
3. CCNC(=O)C#Cc1ccc2c(C(=Nc3ccc(CN(C)C)cc3)c3ccccc3)c(O)[nH]c2c1
4. COc1cc2cc(NCc3ccc(F)cc3)nc(C)c2cc1OC
5. Cn1c(Nc2ccc(C(F)(F)F)cc2)nc2cc(Oc3ccnc(-c4ncc(C(F)(F)F)[nH]4)c3)ccc21
6. CN1CCN(c2nc(C3=C(c4c[nH]c5ccccc45)C(=O)NC3=O)c3ccccc3n2)CC1

**Result**
15.6
98
-66.8
25.3
67
80.7

Quick request: growth for each listed item, please.
1. O=S1(=O)OC(c2ccc(O)c(Cl)c2)(c2ccc(O)c(Cl)c2)c2ccccc21
2. CNC(=O)c1cc(Oc2cccc3nc(Nc4ccc(Cl)c(F)c4)ccc23)ccn1
3. Cc1cc(Nc2ncc(Cl)c(Nc3ccccc3S(=O)(=O)C(C)C)n2)c(OC(C)C)cc1C1CCNCC1
4. CS(=O)(=O)N1CCN(Cc2cc3nc(-c4cccc5[nH]ncc45)nc(N4CCOCC4)c3s2)CC1

**Result**
1. 60.6
2. 9.48
3. -92.3
4. -17.1

---

System: IGROV1 ovarian
Test: NCI-60 one-dose screen, 48 h
Details: 10 µM unless noted
Protocol: Growth inhibition of the IGROV1 human tumor cell line is measured as a screen for anti-cancer activity. Cells are grown in 96 well plates and exposed to the test compound for 48 hours. Compounds are tested at a single concentration, which is 10^-5 M for most compounds. The reported endpoint is percent growth (GI% or GIPRCNT), where numbers from 0 - 100% represent growth inhibition, and numbers from -100% - 0 represent cell death. For example, a value of 40 represents 60% growth inhibition. […]
About 83,000 compounds went through this panel and 20% of them were active in at least one assay; those are over-represented in the sample as a whole. Activity calls are given as the source filed them. How the source made its calls: active means growth percent below 10; inactive means the rest.
Bench note: report the call from active, inactive

> print(dat)
                                   compound  qualitative.label
1  COc1cc2ncnc3c2cc1OCCCCCN(C)Cc1ccc(Br)cc1N3             active
2  COc1cnc2c(c1)C(=O)c1c-2n(CCCNC2=NCCS2)c(=O)c2cc(Cl)ccc12             active
3  COc1ccc(C2CC(=O)c3c(O)c(OC)c(OC)c(OC)c3O2)c(O)c1 (centres undefined)           inactive
4  Cn1ccnc1C(=O)/C=C/c1ccc(CC(=O)Nc2ccc(C(F)(F)F)cc2)cc1             active
5  CNC(=O)c1cc(Oc2ccc(NC(=O)Nc3cc(C(C)(C)C)nn3-c3ccc4ncccc4c3)c(F)c2)ccn1             active
6  CCN(CCCOc1ccc2c(Nc3cc(CC(=O)Nc4cccc(F)c4)[nH]n3)ncnc2c1)CCOP(=O)(O)O           inactive
7  CCc1nc2cc(F)c(/C=C/C(=O)NO)cc2c(=O)n1CCc1ccccc1           inactive
8  N#CCNC(=O)c1ccc(-c2ccnc(Nc3ccc(N4CCOCC4)cc3)n2)cc1           inactive

**Query** Write down the call the test reported for this compound. Item: Cc1cccc(Cl)c1NC(=O)c1cnc(Nc2cc(N3CCOCC3)cc(S(C)(=O)=O)c2)s1
**Result** active

**Query** Hi, sorry to bother you, what did the test record for CC(C)OP(=O)(CCC(=O)c1c[nH]c2ccccc12)OC(C)C ?
**Result** inactive

**Query** Called result for Cn1cc(-c2ncnc3ccc(-c4cnc(Cl)c(NS(C)(=O)=O)c4)cc23)c2ccccc21
**Result** active

**Query** Give the logged outcome of this assay for the following compound: Cn1c(Nc2ccc(C(F)(F)F)cc2)nc2cc(Oc3ccnc(-c4ncc(C(F)(F)F)[nH]4)c3)ccc21
**Result** inactive

**Query** Tell me the assay call for Cc1c(CN2CCN(C(=O)[C@H](C)O)CC2)sc2c(N3CCOCC3)nc(-c3cnc(N)nc3)nc12 please.
**Result** active

**Query** Query: recorded result category for N#Cc1c(-c2ccc(C(F)(F)F)cc2)cc(NCC2CCS(=O)(=O)CC2)n2c1nc1ccccc12 in this test
**Result** inactive
